# TESTED ON: human NPP1 (Homo sapiens)
# Construct: made in house; host or cells: COS-7 cells (transfected; protein extract / cell lysate)
# PROTOCOL TEXT: Inhibition of NPP1 activity
# Assay type: biochemical
# PROTOCOL CONDITIONS: pNP-TMP 5·10^−5 M; listed as APPCP-α-S B
REPORTED METRIC: pIC50
Answer as the number alone; pIC50 is minus log10 of concentration in mol/L.

In: Write down pIC50 measured for item Nc1ncnc2c1ncn2[C@@H]1O[C@H](COP(O)(=S)OP(=O)(O)CP(=O)(O)O)[C@@H](O)[C@H]1O (single isomer, unassigned; isomer b) [APPCP-α-S (isomer B)]
Out: 4.73

---

Form field: pEC50 (one value per entry).
# TESTED ON: human P2Y1-R (Homo sapiens, UniProt P47900)
# Sequence (P47900 whole entry): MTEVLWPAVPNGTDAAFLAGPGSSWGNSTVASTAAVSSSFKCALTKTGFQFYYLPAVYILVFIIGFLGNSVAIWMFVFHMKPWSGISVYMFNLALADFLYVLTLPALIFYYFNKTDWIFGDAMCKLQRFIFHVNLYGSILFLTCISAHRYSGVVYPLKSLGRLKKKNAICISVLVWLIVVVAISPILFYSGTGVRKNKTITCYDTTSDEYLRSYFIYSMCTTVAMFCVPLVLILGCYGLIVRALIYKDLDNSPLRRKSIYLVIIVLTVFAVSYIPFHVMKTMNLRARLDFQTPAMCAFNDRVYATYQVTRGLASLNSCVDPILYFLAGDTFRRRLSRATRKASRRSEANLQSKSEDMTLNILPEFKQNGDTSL
# PROTOCOL TEXT: [Ca^2+]i response of 1321N1 astrocytoma cells expressing P2Y1-R GFP
# PROTOCOL CONDITIONS: agonist; read-out: EC50 at the P2Y1 receptor
pEC50: −log10 of the molar value.

Please review the entries below; each comes with its answer.
Nc1ncnc2c1ncn2[C@@H]1O[C@H](COP(O)(=S)OP(=O)(O)C(Cl)(Cl)P(=O)(O)O)[C@@H](O)[C@H]1O (single isomer, unassigned) | < 5.00
Nc1ncnc2c1ncn2C1OC(COP(O)(=S)OP(=O)(O)CP(=O)(O)O)C(O)C1O (stereo not drawn) | < 5.00

--- query ---
In: Indicate the recorded pEC50 value for this compound: Nc1ncnc2c1ncn2[C@@H]1O[C@H](COP(=O)(O)CP(=O)(O)OP(O)(O)=S)[C@@H](O)[C@H]1O
Out: < 5.00

---

# TESTED ON: human NPP1 (Homo sapiens, UniProt P22413)
# Construct: made in house; host or cells: COS-7 cells (transfected; protein extract / cell lysate)
# Sequence (P22413 1-925): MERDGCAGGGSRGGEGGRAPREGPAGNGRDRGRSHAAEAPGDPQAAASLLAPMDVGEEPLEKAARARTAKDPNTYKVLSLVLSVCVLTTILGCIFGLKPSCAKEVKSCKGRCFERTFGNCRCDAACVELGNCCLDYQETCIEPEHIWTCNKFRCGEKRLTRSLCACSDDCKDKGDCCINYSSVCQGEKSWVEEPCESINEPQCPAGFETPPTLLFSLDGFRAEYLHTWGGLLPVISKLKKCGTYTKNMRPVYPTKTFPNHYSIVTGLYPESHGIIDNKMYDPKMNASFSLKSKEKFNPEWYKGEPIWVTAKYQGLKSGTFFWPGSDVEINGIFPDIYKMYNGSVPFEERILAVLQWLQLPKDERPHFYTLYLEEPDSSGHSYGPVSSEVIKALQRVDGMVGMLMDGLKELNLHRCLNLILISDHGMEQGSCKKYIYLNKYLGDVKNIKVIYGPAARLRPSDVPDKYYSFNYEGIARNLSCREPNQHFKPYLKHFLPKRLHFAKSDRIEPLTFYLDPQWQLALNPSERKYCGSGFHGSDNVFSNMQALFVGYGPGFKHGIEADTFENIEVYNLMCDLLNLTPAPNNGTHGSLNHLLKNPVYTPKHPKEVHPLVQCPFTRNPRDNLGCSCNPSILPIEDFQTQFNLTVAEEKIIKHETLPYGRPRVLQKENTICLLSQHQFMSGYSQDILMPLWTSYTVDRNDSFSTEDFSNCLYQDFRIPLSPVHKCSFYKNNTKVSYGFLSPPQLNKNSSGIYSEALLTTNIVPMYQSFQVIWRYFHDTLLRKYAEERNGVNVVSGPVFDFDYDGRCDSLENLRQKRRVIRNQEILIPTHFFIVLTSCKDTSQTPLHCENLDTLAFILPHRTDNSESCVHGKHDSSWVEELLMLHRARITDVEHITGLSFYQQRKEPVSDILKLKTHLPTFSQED
# PROTOCOL TEXT: Inhibition of NPP1 activity
# Type: biochemical
# PROTOCOL CONDITIONS: pNP-TMP 5·10^−5 M
REPORTED METRIC: pIC50
Give only the number. pIC50 is defined as minus log10 of concentration in molar units.

Nc1ncnc2c1ncn2[C@@H]1O[C@H](COP(=O)(O)CP(=O)(O)OP(O)(O)=S)[C@@H](O)[C@H]1O | 6.41

From here, focus on the item given below.
In: State, in one line, measured pIC50 of Nc1ncnc2c1ncn2[C@@H]1O[C@H](COP(O)(=S)OP(=O)(O)C(Cl)(Cl)P(=O)(O)O)[C@@H](O)[C@H]1O (single isomer, unassigned; isomer b) [APPCCl2P-α-S (isomer B)]
Out: 4.51
